Hello, the source for this data is PubChem BioAssay, in case you need it.

- Test system: glycogen synthase kinase-3 (GSK3A per assay name; protocol says GSK3B)
- experimental-protocol: GSK3 binders on small-molecule microarrays, primary screen, biochemical, small-molecule microarray, 635 nm fluorescence, GSK3A (AID 1103); also: the record names both GSK3A and GSK3B
- conditions-used: small-molecule microarray binding, fluorescence 635 nm; higher = more signal
reported-metric: composite z-score
Give the value as a plain number.

# count of solved cases: 5
What composite z-score value was documented for this molecule, COc1ccc(COC(=O)NN=C2C[C@@H](O)[C@@H](O)[C@@H]3[C@@H]4C(=O)N(c5cccc(Oc6ccccc6)c5)C(=O)[C@@H]4CC[C@@H]23)cc1 ? -1.2

Repeat for the following molecule: CC(CCN1CCc2nc(-c3ccccc3)c(-c3ccccc3)cc2C1)=NOC[C@@H](O)COCc1ccco1 0.814

Repeat for the following molecule: CC(C)=NO[C@H](C)c1cn([C@H](CO)Cc2ccccc2)nn1 -0.122

Repeat for the following molecule: C[C@@H](c1ccccc1)N1C(=O)[C@H]2[C@H]3[C@H](O)[C@H](O)CC(=NOCc4ccccc4)[C@H]3CC[C@H]2C1=O 0.535

Repeat for the following molecule: COC(=O)[C@@H]1CC[C@H](C)[C@@H](c2ccc(C)cc2)N1C(=O)c1ccc(C=NOCC[C@@H]2C=C[C@H](OC(C)=O)[C@@H](COC(C)=O)O2)cc1 0.637

---
What composite z-score value was documented for this molecule, O=C(C=Cc1ccc2c(c1)OCO2)c1ccc(F)cc1 ? -0.296

Repeat for the following molecule: CON=C(C)CCC(=O)OC[C@H]1O[C@H](c2ccccc2)C=C[C@@H]1Oc1ccc(OC)cc1 -0.496

Repeat for the following molecule: CO[C@H]1COC(=O)CC=C[C@H](C)COC(=O)[C@@H](C)NC(=O)CC=C[C@@H]1C 0.913

Repeat for the following molecule: C[C@@H](ON=C1[C@H]2CCn3c(=O)n(-c4ccccc4)c(=O)n3[C@H]2[C@H](O)[C@@H]2O[C@H]12)c1cn([C@@H]2COC[C@H]2O)nn1 0.555

Repeat for the following molecule: C#CCCCON=C1C[C@@H](O)[C@@H](O)[C@@H]2[C@@H]3C(=O)N(c4ccc(F)cc4F)C(=O)[C@@H]3CC[C@@H]12 0.225

Repeat for the following molecule: COC(=O)[C@@H]1CC[C@H](C)[C@@H](c2ccc(C)cc2)N1C(=O)c1ccc(C=NO[C@H](C)c2cn([C@H](CO)Cc3ccccc3)nn2)cc1 0.835

Repeat for the following molecule: CCOC(=O)CCN1C(=O)[C@H]2[C@H]3[C@H](O)[C@H](O)CC(=NOCc4ccccc4)[C@H]3CC[C@H]2C1=O -0.395

Repeat for the following molecule: CCOC(=O)[C@H](CC(C)C)NC(=O)CCC1CC(OC(=O)NCCc2ccc(F)cc2)CC2(CCCC(COC(=O)NCCOc3ccccc3)O2)O1 (some centres not stated) 0.508

Repeat for the following molecule: COc1ccc(O[C@H]2C=C[C@@H](c3ccccc3)O[C@@H]2CON=C2[C@H]3CCn4c(=O)n(-c5ccccc5)c(=O)n4[C@H]3[C@H](O)[C@@H]3O[C@H]23)cc1 0.417

Repeat for the following molecule: COc1ccc(COC(=O)NN=C2C[C@@H](O)[C@@H](O)[C@@H]3[C@@H]4C(=O)N(c5ccc(F)cc5F)C(=O)[C@@H]4CC[C@H]23)cc1 -0.258

Repeat for the following molecule: Cn1c(=O)n2n(c1=O)[C@H]1[C@H](O)[C@@H]3O[C@@H]3C(=NOCc3ccccc3)[C@H]1CC2 -0.046

Repeat for the following molecule: CC(C)(C)N1C(=O)[C@H]2[C@H]3[C@H](O)C=CC(=O)[C@@H]3CC[C@H]2C1=O 0.695
